System: MS2 coat protein
Test: apparent KD of MS2 coat protein; designed switch direction (-1 OFF switch, 1 ON switch): 1; higher = weaker reporter binding
Conditions: input ligand: microRNA oligo, concentration not stated
This section presents sequences with their documented apparent KD of MS2 coat protein values.

polymer_sequence	output_unit	apparent KD of MS2 coat protein
GCACUCCAAGGAGCUGCGACAUGAGGAUCACCCAUGUAAUCACAGGAUAUGCGAUUCCGAAUUUUGCAGAAGGGUGAUAAGAAC [Ratele] (Eterna round: R96, puzzle: Same State NG 3)	µM	0.018
AAUUCAAACAGAGGAUAUUGUUUAUCUCUAUUGCAAGAAGGCUGAUCUUACUACUUACUUAUGAAACAUGAGGAUCACCCAUGU [JR_SSNG1_Sub019] (Eterna round: R96, puzzle: Same State NG 1)	µM	0.0293
GCCAUCGCAUGAGGAUAUGGCACCGUUUCGGUGCCAGAAGGCAUGUCGAAUGACAUGAGGAUCACCCAUGUAGUAUAGAUGGCA [JL Fiskers NG1ss - 33 mod 10] (Eterna round: R96, puzzle: Same State NG 1)	µM	0.377
UUUAUUAAUGCAGGAUAUGAUUAACAUGAGGAUCACCCAUGUGGUGUUGUGAGUAAGGAGAGUGAUCAGAAGGGCAUUUUUUUU [JMF's solution 39] (Eterna round: R96, puzzle: Same State NG 2)	µM	0.43
UUAACAUGACGAGGAUAUCAUUUAUAUCUUGAUUGAGAAGGCGUUCUUUUUUUUACCUAACAUGAGGAUCACCCAUGUGACAGU [JR_SSNG1_Sub051] (Eterna round: R96, puzzle: Same State NG 1)	µM	0.0137
UGAAUAGUCACAGGAUAUCAUGCGAAAAUUGCGUGAGAAGGGUGGAUGUUGUGCUCAAAGUGCUACAUGAGGAUCACCCAUGUU [SameState NG1 #42] (Eterna round: R96, puzzle: Same State NG 1)	µM	0.234
UUGUUUUGAAAUUAACAUGAGGAUCACCCAUGUCUUGACACAGAGGAUAUACAUGAAUGUAGGUAGUAGAAGGCUGUUUAGUGU [JR_SSNG3_Sub098] (Eterna round: R96, puzzle: Same State NG 3)	µM	0.0572

* * *

System: MS2 coat protein
Assay: apparent KD of MS2 coat protein; designed switch direction (-1 OFF switch, 1 ON switch): -1; higher = weaker reporter binding
Settings: input ligand: FMN 200 uM
# apparent KD of MS2 coat protein values compiled below

polymer_sequence	output_unit	apparent KD of MS2 coat protein
ACAUGAGGAUCACCCAUGUAAUCAUGAUGGCUGAUGUAGAGUCAGGAUAUGUGUGGCUUUCUAUCACAGAAGGGACAAGACUGG [Deportation 36 - Jieux - Exclusion NG 3] (Eterna round: R96, puzzle: Exclusion NG 3)	nM	42.9
AUUUUGUGAGGAUAUGGUAACGUUUACAUGAGGAUCACCCAUGUUUCAUGGGACUAGAGACUAGAAGGCACUAACG [JR_Ex5_Sub028] (Eterna round: R97, puzzle: Exclusion 5)	nM	251
AUAAUGUGAGGAUAUCAGUCGACUAGCUGCGGCUAGUCGACUGAGAAGGUACAUGAGGAUCACCCAUGUAGAUC [E4/20-A3] (Eterna round: R97, puzzle: Exclusion 4)	nM	77.9
ACAUGAGGAUCACCCAUGUCAGGCUGGUCCGCUCCGGCUGUUGAGGAUAUAGCACGGUAUCCGCGCUAGAAGGUGAGGGCCGGC [Aenatbe mod 30] (Eterna round: R96, puzzle: Exclusion NG 3)	nM	21.6
AGAUCACAUGAGGAUCACCCAUGUGAGGAUAUAGAUUCAAGAGCUUCGGCUCUAAAGUCUAGAAGGCACUAUGA [EX1 #47] (Eterna round: R97, puzzle: Exclusion 1)	nM	29.1
UCUUUGUCAGGAUAUCGUGCAUACAACGAAAGUUCUAUGUGCGAGAAGGGACAUGAGGAUCACCCAUGUUACGG [Omei Ex4 A4] (Eterna round: R97, puzzle: Exclusion 4)	nM	244
UUACUCCUCGCUUGGUCACACAUGAGGAUCACCCAUGUGGGAUGCCAUGGCGUCUCAUCAAGCUUCUUUUGCUCGUG [Eternabot (Original) Solution 26] (Eterna round: R97, puzzle: Sensor, turn-off variant 1)	nM	20.9
AAUGAUUGACGAGGAUAUUGUGGUAGAUCACGACGAGAAGGCGUAUGUCACAUGAGGAUCACCCAUGUGAGCUUUGUGGAUAGA [Ex NG1 #74] (Eterna round: R96, puzzle: Exclusion NG 1)	nM	27.1
CGCAGACAUGAGGAUCACCCAUGUCAGGAUAUACCUCAUAGCACCAGCUUAUGUAAGGGUAGAAGGGACUUGGA [Eternabot (L1) Solution 81] (Eterna round: R97, puzzle: Exclusion 1)	nM	86.1
GAGAAACAUGAGGAUCACCCAUGUAAGGAUAUGGCGAGAGCUGGAGUACUAGCGCCGUUCAGAAGGUACAUGAG [Eternabot (L2) Solution 27] (Eterna round: R97, puzzle: Exclusion 1)	nM	218
GAAAAGGCAGAGGAUAUUUCAGGUCAAAGCUGCAAAGAAGGCUGCACAUGAGGAUCACCCAUGUGGUCUUAAAA [Mod of Quesina 6 - Jieux - Exclusion 6] (Eterna round: R97, puzzle: Exclusion 6)	nM	150

* * *

Test system: MS2 coat protein
Assay: apparent KD of MS2 coat protein; designed switch direction (-1 OFF switch, 1 ON switch): 1; higher = weaker reporter binding
Conditions: input ligand: microRNA oligo, concentration not stated
quantity_measured: apparent KD of MS2 coat protein (nM)

polymer_sequence	quantity_measured	output_unit	number
UUUAUAUUCAGAGGAUAUUAAAGUAGUAUAACAUAAGAAGGCUGUUUGUUUUGUAAAGUAAUUCUACAUGAGGAUCACCCAUGU [JR_SSNG1_Sub085] (Eterna round: R96, puzzle: Same State NG 1)	apparent KD of MS2 coat protein	nM	15.8
UGUUGUAUUACAGGAUAUCUAUGAUUUUUAUUUAGAGAAGGGUAUUCACAUGAGGAUCACCCAUGUAUAUACGAGGAAGUUGUG [JMF's solution 11] (Eterna round: R96, puzzle: Same State NG 1)	apparent KD of MS2 coat protein	nM	36.8
UUGAUGUACUGAGGAUAUCGUGUCGUCUGUUUUUACAUGAGGAUCACCCAUGUGGGUUGUGGUAUCGAGAAGGCAGUUUUCUUA [JR_SSNG2_Sub030] (Eterna round: R96, puzzle: Same State NG 2)	apparent KD of MS2 coat protein	nM	560

* * *

Test system: MS2 coat protein
Experiment: apparent KD of MS2 coat protein; designed switch direction (-1 OFF switch, 1 ON switch): -1; higher = weaker reporter binding
Details: input ligand: none
quantity_measured: apparent KD of MS2 coat protein (nM)

polymer_sequence	number
UCGCUCCGUGUAGGAUAUCGCCGUAUGAUGCGGCGAGAAGGACAUGAGGAUCACCCAUGUAUGUUAUUAUCACGCGUGGCGCAA [Design 63] (Eterna round: R96, puzzle: Exclusion NG 1)	16.9
GGAGGAGAGGUUAGGAUAUCCUCCUCGAAAGAGGAGGAGAAGGAACAUGAGGAUCACCCAUGUAAGGAAGGAGG [AK-MS2ROC-r4-Bmoexclusion4-10] (Eterna round: R97, puzzle: Brourd's mod of Exclusion 4)	37
UUAUUGUGAGGAUAUCCAAUAUAUGACAUGAGGAUCACCCAUGUUUCCACUCGUACCUCCGGAGAAGGCACUUAUA [Ex5 #47] (Eterna round: R97, puzzle: Exclusion 5)	32.3
GGAUCGAGAGUGAGGAUAUGCUGGUCCUUGGAUCAGCAGAAGGCACAUGAGGAUCACCCAUGUGAUUCCGAUCC [Mat - Exclusion 4 - Eli Mod - D39] (Eterna round: R97, puzzle: Brourd's mod of Exclusion 4)	40.6

* * *

Test system: MS2 coat protein
Experiment: apparent KD of MS2 coat protein; higher = weaker reporter binding
Settings: Eterna round: R107; input ligand: none
The label depends only on apparent KD of MS2 coat protein: 1 if it is at least 30 nM, 0 if it is smaller.

polymer_sequence	class_assignment
ACUGGAGGUGGAAGGAGCGGGAGACAUGAGCAUCACAUGAGGAUCACCCAUGUAGGAUCAUCCCAGGUAGGUCGCCAUGUCGAAA [rtfemullin]	1
AGCGACAUGCGUGAUACCAGCUACAUGAGGAUCACCCAUGUCAGCAGGGAACUGCUGUGUAGCCCUUGGCAGCACAGUGCAUGUC [Exclusion - Theophylline B (Freestyle 29)]	0
GUUUAAAGGUCGGCCGCCACUGUAGGAUGUGUUCUUUCACAUGAGGAUCACCCAUGUUGUUAUUAUAGGACCGGGAUUGUAGGAC [39MS split4]	1
AAAUAAAUACAUGAGGAUCACCCAUGUGAAGGAGCGCCCGUUAGGGCAGGUAGGUCGCGCAUGAAUAACUCCGUGCAAAAGCACA [ArgEX 19 #OpenEnded]	0
UUGUUGUUUGGAAGGAGCGUGUAAGAUUAAGAACAUGAGGAUCACCCAUGUUUUAAGGGAGCACAGGUAGGUCGCCGGGUGGUGG [11.S]	0
AGCUCGCAUCCUCUAGCGUCAAAGACGCGUCGAGGACCGGUACGGCCGCCACUCGACGUGAGGAUCACCCACGUCUAAGCGAGCA [TrypAX 10 #SwitchBubble #AlternativeMS2 #MS2Late #CuTurnoff]	0
